ASSAY_SYSTEM: Cellular tumor antigen p53 (Homo sapiens)
ASSAY_PROCEDURE: Primary qHTS for small molecule compounds that upregulate eGFP-tagged delta133p53alpha (in N-terminal) cells. (AID 2060322);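 further: cells pre-induced with doxycycline then dosed without doxycycline; series mostly up to about 56 µM; 0% = DMSO vehicle and 100% = reference activator; nearly all actives have a fitted effect of over 75% in size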
CONDITION: NCI-H358 eGFP-delta133p53alpha fluorescence, 24 h; stronger effect = higher value
Results filed as inconclusive are left out. Calls of active or inactive are those of the source. The call rests on the fitted dose curve; in most records, active means well fitted activation curve with a large enough effect; inconclusive means small, poorly fitted or top-dose-only effect; inactive means no such curve, though single readings can be large or run the other way.
TEST_READOUT: activation

Solved entries (count: 3):
# COMPOUND, activation
records = [
    ("COC(=O)C1(C)CCC(O)C2(C)c3cc(O)c(C(C)C)cc3C(O)C(OC(C)=O)C12 (stereo unspecified)", "-2.68% (inactive)"),
    ("NC(=O)CS(=O)C(c1ccccc1)c1ccccc1 (stereo unspecified)", "-6.21% (inactive)"),
    ("O=[N+]([O-])c1ccc([As](=O)(O)O)cc1", "-14.2% (inactive)"),
]

# input compound: O=C1OC(c2ccc(O)c(S(=O)(=O)O)c2)(c2ccc(O)c(S(=O)(=O)O)c2)c2c(Br)c(Br)c(Br)c(Br)c21 ; wanted: its activation
25.4% (inactive)

Please give the measured activation for this compound: C1=C2CCCN[C@H]2[C@@H]2C[C@H]1[C@@H]1CCCCN1C2
1.08% (inactive)

GET /values?readout=activation&item= C[N+]1(C)CCOC(O)(c2ccc(-c3ccc(C4(O)C[N+](C)(C)CCO4)cc3)cc2)C1 (stereo unspecified)
14.5% (inactive)

Any idea what activation was measured for CCCCCn1cc(C(=O)c2cccc3ccccc23)c2ccccc21 ?
20.5% (inactive)

I'd like to know its activation. The compound in question is N=C(N)c1ccc(CS(=O)(=O)F)cc1
3.92% (inactive)

Return reported activation; argument: OCc1cnc[nH]1
-9.48% (inactive)

Suppose we examine the compound C[C@]12CC[C@H]3[C@@H](CCC4=C/C(=N/OCC(=O)O)CC[C@@]43C)[C@@H]1CC[C@@H]2O ; what activation value has been reported?
13.7% (inactive)

Return reported activation; argument: C[N+](C)(C)CC#CCOC(=O)Nc1cccc(Cl)c1
13.3% (inactive)

Values compiled from PubChem BioAssay (NCATS).
